- Tested on: OVCAR-3 ovarian
- test_protocol: NCI tumour cell line growth inhibition, 48 h
Can you tell me TGI for the items I'm about to list?

Some solved entries appear below for comparison.
>>> df
                                   compound  assay_endpoint     result
0    C=CCc1cccc2cc(C(=O)Nc3ccccc3)c(=N)oc12             TGI   > 100 µM
1  CCCCCCCCC/C=C/C=C/C(=O)NCC(=O)NC1C(O)C(O)C(Nc2ncnc3nc[nH]c23)OC1C(O)CO (stereo not given)             TGI  0.0436 µM

Provide the reported TGI of each entry below, same order.
1. Cc1ccc(C(CC(=O)c2ccccc2)C2C(=O)NC(=O)NC2=O)cc1 (stereo not given)
2. O=C(CCCN1CCC2(CC1)CC(=O)N(N1CCCCCC1)C2=O)c1ccccc1
3. COC(=O)c1ccccc1OCc1cc(=O)oc2ccc(C)cc12

**A:**
> 100 µM
> 100 µM
> 100 µM

----------
- System: KM12 colon
- test_protocol: NCI tumour cell line growth inhibition, 48 h
assay_endpoint: TGI

Some solved entries appear below for comparison.
compound	assay_endpoint	result
O=c1ccn([C@@H]2C[C@@H]2CO)c(=O)[nH]1	TGI	> 100 µM
COC(=O)c1sc(=S)sc1SCc1ccc(CSc2sc(=S)sc2C(=O)OC)cc1	TGI	> 100 µM
CC1=NN(c2nc(N)nc(CSc3nc4n(c(=S)n3)CCN4)n2)C(C)(C)C1	TGI	> 100 µM
CCOC(=O)c1nc2ccccc2nc1NCc1cc(OC)c(OC)c(OC)c1	TGI	> 100 µM
O=c1[nH]nc2ccccc2c1Cc1ccccc1	TGI	> 100 µM

Provide the reported TGI of each entry below, same order.
1. Cc1ccc(SSc2ccc(C)cc2C(=O)O)c(C(=O)O)c1
2. O=c1ccn(C2CC(O)C(CO)O2)c(=O)[nH]1 (stereo not given)
3. CN1c2ccccc2N(C(=O)c2ccc(Cl)cc2)C(CC(=O)O)c2cccn21 (stereo not given)
4. CC1CC[C@@]2(OC1)OC1C[C@H]3[C@@H]4CC=C5CC(OC6OC(CO)C(OC7OC(CO)C(O)C(OC8OCC(O)C(O)C8O)C7OC7OC(CO)C(O)C(O)C7O)C(O)C6O)CCC5(C)[C@H]4CCC3(C)C1[C@@H]2C (stereo not given in full)
5. OCC1C(/C=C/c2ccoc2)ON2CCCC12 (stereo not given)

**A:**
1. > 100 µM
2. > 5000 µM
3. > 100 µM
4. 10.5 µM
5. > 100 µM

----------
Can you tell me TGI for the items I'm about to list?
- Test system: SK-MEL-5 melanoma
- test_protocol: NCI tumour cell line growth inhibition, 48 h

Some solved entries appear below for comparison.
In [3]: df
Out[3]:
                                   molecule     result
0  COc1cc2c(ccc3c4cc(OC)c(OC)cc4c[n+](C)c23)cc1O    52.7 µM
1  COc1ccc(C(=O)/C=C/c2cccc([N+](=O)[O-])c2)c(OC)c1    > 50 µM
2  O=c1ccn(C2CC(O)C(CO)O2)c(=O)[nH]1 (configuration not stated)  > 5000 µM
3  O=S(Nc1ccccc1)c1cccc(Cl)c1 (configuration not stated)   > 100 µM
4  Cc1nn(-c2ccccc2)c(C)c1/C=N/N=C1\SCC(=O)N1c1ccccc1    30.3 µM

Provide the reported TGI of each entry below, same order.
1. Fc1ccc(C(OCCN2CCC3CCC(C2)N3C/C=C/c2ccco2)c2ccc(F)cc2)cc1 (configuration not stated)
2. CCOC(=O)C(NC(=O)c1ccco1)(Nc1nc2ccc(OCC)cc2s1)C(F)(F)F (configuration not stated)
3. COc1cc(CO)c(CC(=O)NCCCc2ccccc2)cc1OC
4. O=C1NC(=S)N/C1=C\c1ccc(Br)s1
5. C(=N\NC1=NCCN1)/c1ccc(-c2cn3cc(/C=N/NC4=NCCN4)ccc3n2)cc1
6. O=C1NCc2ccccc2S(=O)(=O)n2cccc21
7. CCOC(=O)c1c2c(n(Cc3ccc(Cl)cc3Cl)c1C)-c1nc[nH]c1C(=O)C2=O

**A:**
1. 14.4 µM
2. 47.8 µM
3. > 100 µM
4. > 100 µM
5. > 100 µM
6. > 100 µM
7. 25.7 µM

Provide the reported TGI of each entry below, same order.
1. COc1cc2ccccc2oc1=O
2. O=C(CCCN1CCC2(CC1)CC(=O)N(N1CCCCCC1)C2=O)c1ccccc1
3. C[C@@H](c1ccccc1)N1CN(C(=O)OCc2ccccc2)C(C)(C)CC1=O
4. COc1ccc(C(=O)c2sc(Nc3ccc(Cl)cc3)nc2N)cc1
5. CCSc1n/c(=C\c2ccco2)c2nncn12
6. O=C(N/C(=C/c1ccc(Cl)cc1Cl)c1nc2ccccc2s1)c1ccccc1

**A:**
> 100 µM
> 100 µM
> 100 µM
> 100 µM
> 100 µM
26.4 µM

Provide the reported TGI of each entry below, same order.
1. Cc1cn(C2CC(O)C(COC(=O)NCCC(F)(F)C(F)(F)C(F)(F)C(F)(F)F)O2)c(=O)[nH]c1=O (configuration not stated)
2. O=c1[nH]nc2ccccc2c1Cc1ccccc1
3. COc1ccc2c(c1)[n+]([O-])c(-c1ccc(OC)c(OC)c1)c(N)[n+]2[O-]
4. Cc1cc2c(cc1Cl)S(=O)(=O)OC(c1ccc([N+](=O)[O-])cc1)=N2

**A:**
1: > 100 µM; 2: > 100 µM; 3: 83 µM; 4: > 100 µM

----------
- Test system: HCC-2998 colon
- test_protocol: NCI tumour cell line growth inhibition, 48 h
assay_endpoint: TGI

>>> df
                                compound    result
0  O=c1c2nc3ccccc3c(=O)n2ncn1-c1ccccc1Cl  > 100 µM

Provide the reported TGI of each entry below, same order.
1. Fc1ccc(C(OCCN2CCC3CCC(C2)N3C/C=C/c2ccco2)c2ccc(F)cc2)cc1 (stereo not given)
2. CN1CCN(c2ncc3c(n2)sc2c(=O)n(-c4ccccc4)cnc23)CC1
3. COc1cc2c(cc1OCCCCN1C(=O)c3cccc4cccc(c34)C1=O)N=C[C@@H]1CCCN1C2=O
4. CC(=O)C(=Cc1ccc(C=C(C(C)=O)C(C)=O)cc1)C(C)=O
5. O=C1c2ccccc2OP(=O)(OCC(F)(F)F)OC1(C(F)(F)F)C(F)(F)F (stereo not given)
6. Cc1cc(N(CCC#N)CCC#N)ccc1/C(N=Nc1ccc(C(=O)O)cc1)=N\NC(=O)c1cc(Cl)ccc1O
7. O=CN/C=C/c1cccc(O)c1

**A:**
["18.4 µM", "> 100 µM", "20.5 µM", "7.66 µM", "> 100 µM", "> 100 µM", "> 100 µM"]

Provide the reported TGI of each entry below, same order.
1. O=C(Nc1ccncc1)C(=O)c1cn(Cc2ccc(Cl)cc2)c2ccccc12
2. CC1=NN(c2nc(N)nc(CSc3nc4n(c(=S)n3)CCN4)n2)C(C)(C)C1

**A:**
> 100 µM
> 100 µM

----------
Can you tell me TGI for the items I'm about to list?
- Test system: HCC-2998 colon
- test_protocol: NCI tumour cell line growth inhibition, 48 h
Give bare numbers, in µM.

                                   molecule     test_system  unit_spec  result_number
0  COC1=CC(c2ccc[nH]2)=N/C1=C\c1[nH]c(C)c(C(=O)CCCCC(=O)NC(C)(C)C)c1C  HCC-2998 colon         µM           6.09
1  CNCCCn1c2c(c3ccc([N+](=O)[O-])cc3c1=O)C(=O)c1cc(OC)cnc1-2  HCC-2998 colon         µM           1.06

Now let's try a different one.
**Q:** What value of TGI has been reported for the following molecule? CCC1CN2C(=N1)c1ccccc1-c1cc(Cl)ccc12 (stereo not given)
**A:** 16.3

----------
- System: LOX IMVI melanoma
- test_protocol: NCI tumour cell line growth inhibition, 48 h
assay_endpoint: log10 TGI (log10 of the value in µM)
Friendly reminder: values = log10 of TGI, unit µM.

Some solved entries appear below for comparison.
>>> df
                                   molecule  result_number
0  O=C(C[n+]1ccc2ccccc2c1)c1ccc2ccc3ccccc3c2c1           0.82
1  COc1ccc(-c2nc(/C=N/Nc3cc(C)nc4ccc(Cl)cc34)c(C)o2)cc1           0.51
2  CCn1cnc(C[C@H](NC(=O)[C@@H](NC(=O)Nc2cc(C(F)(F)F)cc(C(F)(F)F)c2)C(C)C)C(=O)OC)c1           0.87
3  CN(C)CCN(C)c1ccc2c(=O)n(CCN(C)C)c(=O)n3c4ccccc4c(=O)c1c23           0.74
4  O=C(/C=C/c1ccc(O)c(-c2cc(C(=O)/C=C/c3ccc(O)cc3)c(O)cc2O)c1)c1ccc(O)cc1O           1.63

**Q:** What value of log10 TGI has been reported for the following molecule? CC(=O)O[C@H]1[C@@H]2OC(=O)[C@@](O)(CC3CCCO3)[C@@H]2CC(=O)[C@](C)(O)CC/C=C(\C)CCC[C@@H]1C (some centres undefined)
**A:** 1.66
